# pEC50 per record follows
Molecular target: FPR1 (Homo sapiens, UniProt P21462)
Sequence (P21462 whole entry): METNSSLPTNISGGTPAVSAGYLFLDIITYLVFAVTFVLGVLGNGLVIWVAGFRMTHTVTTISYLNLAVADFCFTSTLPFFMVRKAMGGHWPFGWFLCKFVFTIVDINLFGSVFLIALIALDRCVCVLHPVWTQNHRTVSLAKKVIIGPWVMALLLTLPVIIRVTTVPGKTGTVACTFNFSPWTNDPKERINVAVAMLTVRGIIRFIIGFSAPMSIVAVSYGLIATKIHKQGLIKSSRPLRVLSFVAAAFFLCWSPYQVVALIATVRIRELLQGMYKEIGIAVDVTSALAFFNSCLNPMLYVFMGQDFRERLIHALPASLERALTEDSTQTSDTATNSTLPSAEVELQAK
Assay: Compound-induced calcium activity on FLIPR Tetra in Gα16 cells stably expressing FPR1
Conditions: table head Ga16-HEK293, text CHO-Gα16 cells stably expressing FPR1, tested 0.61 to 10,000 nM
Scale note: pEC50 = -log10(concentration in M).

In the examples that follow, each entry is paired with its recorded pEC50.
- CC(C)C[C@H](NC(=O)CNC(=O)Nc1ccc(Br)cc1)C(=O)O [Compound 1]: 9.24
- CC(C)C[C@H](NC(=O)CCNC(=O)Nc1ccc(Br)cc1)C(=O)O [Compound 5]: 7.12
- CCC[C@H](NC(=O)CNC(=O)Nc1ccc(Br)cc1)C(=O)O [Compound 6]: 8.31

Now let's try a different one.
Answer with the recorded pEC50 for the compound listed here: O=C(CNC(=O)Nc1ccc(Br)cc1)N[C@@H](Cc1ccccc1)C(=O)O [Compound 4]
7.83
